In this section we review reported %Inh values for a set of compounds.
- System: ERK8
- Construct: gene MAPK15
- TEST_CONTEXT: concentration: 1 μM, replicates: in singlicate; n = 1;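 note: KINOMEscan kinase panel screen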
The response must be a number in % with no trailing unit.

Past entries and their recorded results:
COMPOUND	MEASURE_UNIT	%Inh
COc1cc(Nc2ncc3c(C)nc(-c4cc5ccccc5[nH]4)n3n2)cc(OC)c1OC	%	0
NCCCC(NC(=O)c1cc(Br)c(-c2ccnc3[nH]ccc23)s1)c1ccccc1.O=C(O)C(F)(F)F.O=C(O)C(F)(F)F (centres unmarked)	%	43
CC(C)c1nc(-c2cccc(NS(=O)(=O)c3c(F)cccc3F)c2F)c(-c2ccnc(Nc3ccc(N4CCOCC4)nc3)n2)s1	%	93.5
Nc1ncnc2c1nc(-c1ccccc1)n2-c1ccccc1	%	13
COCCOCCOc1cc2ncc3c4ccc(C#N)cc4[nH]c3c2cc1OC	%	36

Incoming: Fill blank: measured %Inh of the compound `CC(C)(C)c1ccc2nccc(Nc3cccc(O)c3)c2c1` is ____.
Outgoing: 0

Incoming: Fill blank: measured %Inh of the compound `Fc1ccc(-c2ncn(C3CCNCC3)c2-c2ccnc(Oc3ccc(-c4ccccc4)cc3)n2)cc1` is ____.
Outgoing: 31

Incoming: Fill blank: measured %Inh of the compound Cl.Cl.NCC(C(=O)Nc1cc(Br)c(-c2ccnc3[nH]ccc23)s1)c1ccccc1 (centres unmarked) is ____.
Outgoing: 74

Incoming: Fill blank: measured %Inh of the compound COc1cccc(NC(=O)NC2CCN(c3ccnc(Nc4cc(OC)c(OC)c(OC)c4)n3)C2)c1 (centres unmarked) is ____.
Outgoing: 0

Incoming: Fill blank: measured %Inh of the compound `CN1CCN(Cc2cccc(-c3ccc4c(Nc5ccc(Oc6ccccc6)cc5)ccnc4c3)c2)CC1` is ____.
Outgoing: 0

Incoming: Fill blank: measured %Inh of the compound `CSc1cccc2c(-c3ccncn3)c(-c3ccc(F)cc3)nn12` is ____.
Outgoing: 0

Incoming: Fill blank: measured %Inh of the compound `O=C(Nc1cccc(-c2nn3ccccc3c2-c2ccnc(Nc3cccc(C(F)(F)F)c3)n2)c1)c1c(F)cccc1F` is ____.
Outgoing: 9

Incoming: Fill blank: measured %Inh of the compound `O=C(Nc1ccccc1F)NC1CCN(c2ccnc(Nc3ccc(F)cc3)n2)CC1` is ____.
Outgoing: 0

Incoming: Fill blank: measured %Inh of the compound `COc1cc(Nc2nccc(-c3c(-c4cccc(NC(=O)c5c(F)cccc5F)c4)nn4ncccc34)n2)cc(OC)c1OC` is ____.
Outgoing: 0

Incoming: Fill blank: measured %Inh of the compound `Cc1ccc(C(=O)Nc2ccc(Nc3ccnc4cc(-c5nccs5)ccc34)cc2O)cc1.Cl` is ____.
Outgoing: 11

Incoming: Fill blank: measured %Inh of the compound `Cc1ccc(S(=O)(=O)Nc2ccc(Nc3nccc(Nc4cccc5[nH]ncc45)n3)cc2)cc1` is ____.
Outgoing: 28

Incoming: Fill blank: measured %Inh of the compound `c1ccc(-c2cnc3nccnn23)cc1` is ____.
Outgoing: 0

* * *

- Test system: AKT1
- TEST_CONTEXT: concentration: 1 μM, replicates: in singlicate; n = 1
Is %Inh at least 2%? Then yes (1). If not, no (0).

COMPOUND	ASSIGNED_CATEGORY
Fc1ccc(-c2ncn(C3CCNCC3)c2-c2ccnc(Oc3ccc(-c4ccccc4)cc3)n2)cc1 [SB-245391]	yes (1)
Cl.c1ccc(-c2ccc3c(Nc4ccc5[nH]ccc5c4)ccnc3c2)nc1 [GW440138]	no (0)
O=C(O)C(F)(F)F.O=C(O)C(F)(F)F.O=c1[nH]ccc2nc(N[C@@H]3CCCNC3)nc(Nc3ccc(S(=O)(=O)N4CCOCC4)cc3)c12 [GSK2177277]	no (0)
O=C(Nc1n[nH]c2cc(-c3ccoc3)ccc12)C1CC1 [SB-738481]	no (0)
Cc1ccc(S(=O)(=O)Nc2ccc(Nc3nccc(Nc4cccc5[nH]ncc45)n3)cc2)cc1 [GSK581271]	no (0)

Incoming: Answer whether %Inh of COc1cccc(NC(=O)NC2CCN(c3ccnc(Nc4cc(OC)c(OC)c(OC)c4)n3)C2)c1 (centres unmarked) [GSK1379763] is greater than or equal to 2%.
Outgoing: no (0)

Incoming: Answer whether %Inh of c1ccc(-c2cnc3nccnn23)cc1 [AH20685] is greater than or equal to 2%.
Outgoing: no (0)

Incoming: Answer whether %Inh of `COc1cccc(C(=O)Nc2cccc(Oc3ccc4nc(NC(=O)C5CC5)cn4n3)c2)c1` is greater than or equal to 2%.
Outgoing: yes (1)

Incoming: Answer whether %Inh of Nc1n[nH]c2cnc(-c3ccccc3)cc12 [SB-642124] is greater than or equal to 2%.
Outgoing: no (0)

Incoming: Answer whether %Inh of Cl.Cl.NCC(NC(=O)c1cc(-c2ccccc2)c(-c2ccnc3[nH]ccc23)s1)c1ccccc1 (centres unmarked) [GSK1321561] is greater than or equal to 2%.
Outgoing: yes (1)

* * *

In this section we review reported %Inh values for a set of molecules.
- Test system: MEK5
- Construct: gene MAP2K5
- TEST_CONTEXT: concentration: 1 μM, replicates: in singlicate; n = 1
The number alone won't do; follow it with the unit.

Past entries and their recorded results:
CNC(=O)c1ccccc1Nc1nc(Nc2ccc(N3CCOCC3)cc2)ncc1Cl.Cl 97.6%
COc1cc(Nc2ncc3c(C)nc(-c4cc5ccccc5[nH]4)n3n2)cc(OC)c1OC 78%
Cc1occc1-c1ncc(OC[C@@H](N)Cc2c[nH]c3ccccc23)cc1-c1ccc2[nH]nc(C)c2c1.O=C(O)C(F)(F)F 76%

Incoming: // fetch MEK5 %Inh for `CCn1c(-c2nonc2N)nc2c(C#CC(C)(C)O)ncc(OCCCCN)c21.O=C(O)C(F)(F)F.O=C(O)C(F)(F)F`
Outgoing: 0%

* * *

- System: FLT4
- TEST_CONTEXT: concentration: 1 μM, replicates: in singlicate; n = 1
PARAMETER_MEASURED: %Inh (%)
The response must be a number in % with no trailing unit.

Past entries and their recorded results:
COMPOUND	TARGET	MEASURE_UNIT	%Inh
COC(=O)Nc1nc2ccc(Oc3ccc(NC(=O)Nc4cc(C(F)(F)F)ccc4F)cc3)cc2n1C.Cl [GW692089]	FLT4	%	87
O=C(Nc1ccccc1F)NC1CCN(c2ccnc(Nc3ccc(F)cc3)n2)CC1 [GSK1379800]	FLT4	%	0
CN1CCN(Cc2cccc(-c3ccc4c(Nc5ccc(Oc6ccccc6)cc5)ccnc4c3)c2)CC1 [GW578342]	FLT4	%	43
Nc1ncnc2c1nc(-c1ccccc1)n2-c1ccccc1 [SKF-97293]	FLT4	%	0
COc1ccc(-c2coc3ccc(-c4nnc(SCc5ccc(OC)c(C(F)(F)F)c5)o4)cc23)cc1	FLT4	%	13
CC(=O)Nc1nc2cnc(Nc3cc(NC(=O)c4cccc(C5(C#N)CC5)c4Cl)ccc3C)nc2s1	FLT4	%	60
Cc1ccc(S(=O)(=O)Nc2ccc(Nc3nccc(Nc4cccc5[nH]ncc45)n3)cc2)cc1 [GSK581271]	FLT4	%	5
COc1cccc(C2=C(Nc3ccc(Cl)c(C(=O)O)c3)C(=O)NC2=O)c1 [SB-390769]	FLT4	%	47
O=C(O)C(F)(F)F.O=C(O)C(F)(F)F.O=c1[nH]ccc2nc(N[C@@H]3CCCNC3)nc(Nc3ccc(S(=O)(=O)N4CCOCC4)cc3)c12 [GSK2177277]	FLT4	%	98.7
Cc1cccc(NC(=O)Nc2ccc(Oc3ncnc4ccn(C)c34)cc2)c1	FLT4	%	73

Incoming: Fill blank: measured %Inh of the compound COc1cccc(-c2ccc3c(NC(=O)C4CC4)n[nH]c3n2)c1 [SB-710903] is ____.
Outgoing: 1

Incoming: Fill blank: measured %Inh of the compound Fc1ccc(-c2ncn(C3CCNCC3)c2-c2ccnc(Oc3ccc(-c4ccccc4)cc3)n2)cc1 [SB-245391] is ____.
Outgoing: 5

* * *

- System: TEC
- TEST_CONTEXT: concentration: 1 μM, replicates: in singlicate; n = 1
PARAMETER_MEASURED: %Inh (%)
The response must be a number in % with no trailing unit.

Past entries and their recorded results:
MOLECULE	OBSERVED_VALUE
O=C(Nc1cccc(-c2nn3ncccc3c2-c2ccnc(Nc3ccccc3)n2)c1)c1c(F)cccc1F [GSK198271]	95.4
Nc1ncnc2c1nc(-c1ccccc1)n2-c1ccccc1 [SKF-97293]	8

Incoming: Fill blank: measured %Inh of the molecule Cc1ccc(C)c(NC(=O)NC2CCN(c3ccnc(Nc4ccc(F)cc4)n3)C2)c1 (centres unmarked) [GSK1379720] is ____.
Outgoing: 2

Incoming: Fill blank: measured %Inh of the molecule Nc1n[nH]c2cnc(-c3ccccc3)cc12 [SB-642124] is ____.
Outgoing: 68

Incoming: Fill blank: measured %Inh of the molecule O=C(Nc1ccccc1F)NC1CCN(c2ccnc(Nc3ccc(F)cc3)n2)CC1 [GSK1379800] is ____.
Outgoing: 0

Incoming: Fill blank: measured %Inh of the molecule C[C@@H]1CC[C@@H](C(=O)Nc2ccccc2)CN1c1cc(-c2ccc3c(N)n[nH]c3c2)nc(N)n1 [GSK2286062] is ____.
Outgoing: 0

Incoming: Fill blank: measured %Inh of the molecule COc1cc(Nc2nccc(-c3c(-c4cccc(NC(=O)c5c(F)cccc5F)c4)nn4ccccc34)n2)cc(OC)c1OC [GSK323521] is ____.
Outgoing: 21

Incoming: Fill blank: measured %Inh of the molecule COc1ccc(Nc2nccc(N3CCC(NC(=O)Nc4cccc(OC)c4)C3)n2)cc1 (centres unmarked) [GSK1379742] is ____.
Outgoing: 1
